experiment: Cytotoxicity against human HCT116/VM46 cells assessed as reduction in cell viability after 72 hrs by phosphatase assay; type: cell-based; conditions: HCT-116/VM46, 72 h
pIC50: −log10 of the molar value.
Item-by-item account of pIC50

item_smiles	pIC50
CC[C@]1(NC(=O)/C=C/c2ccccc2)C[C@H]2CN(CCc3c([nH]c4ccccc34)[C@@](C(=O)OC)(c3cc4c(cc3OC)N(C)[C@H]3[C@@](O)(C(=O)OC)[C@H](OC(C)=O)[C@]5(CC)C=CCN6CC[C@]43[C@@H]65)C2)C1	7.70
CC[C@]1(NC(=O)c2ccc(Br)c(Br)c2)C[C@H]2CN(CCc3c([nH]c4ccccc34)[C@@](C(=O)OC)(c3cc4c(cc3OC)N(C)[C@H]3[C@@](O)(C(=O)OC)[C@H](OC(C)=O)[C@]5(CC)C=CCN6CC[C@]43[C@@H]65)C2)C1	7.10
CCOc1ccc(C(=O)N[C@@]2(CC)C[C@H]3CN(CCc4c([nH]c5ccccc45)[C@@](C(=O)OC)(c4cc5c(cc4OC)N(C)[C@H]4[C@@](O)(C(=O)OC)[C@H](OC(C)=O)[C@]6(CC)C=CCN7CC[C@]54[C@@H]76)C3)C2)cc1Cl	7.40
CC[C@]1(NC(=O)c2cscn2)C[C@H]2CN(CCc3c([nH]c4ccccc34)[C@@](C(=O)OC)(c3cc4c(cc3OC)N(C)[C@H]3[C@@](O)(C(=O)OC)[C@H](OC(C)=O)[C@]5(CC)C=CCN6CC[C@]43[C@@H]65)C2)C1	7.10
